Assay: optical density change of DRC41 E. coli – strain DRC41, OD650, 24 h, E. coli filamentation project, primary screen (AID 1093);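 also: MC1000 strain lacking acrAB efflux and sulA so SOS filamentation is blocked; test concentration not given here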
Conditions: E. coli DRC41 growth, higher = more signal, called active from +8 up or from −8 down
Class y: z-score at least 0.5. Class n: z-score below 0.5.

Q: Tell me whether z-score is at least 0.5 here: O=C(NCCN1CCOCC1)[C@@H]1c2ccccc2C(=O)N(Cc2ccccc2C(F)(F)F)[C@H]1c1ccc(CO)cc1
Result: y

Q: Also need COC(=O)[C@]1(Cc2ccccc2)N=C(c2ccc(OCCCO)cc2)O[C@@H]1c1ccccc1CN=[N+]=[N-] , thanks.
Result: n

Q: Also need O=C1N(CCS(=O)(=O)c2ccccc2)c2ccccc2C[C@]12N=C(c1ccc(OCCCO)cc1)O[C@@H]2c1ccccc1 , thanks.
Result: y
